testedOn: Human GPR35 (Homo sapiens, UniProt Q9HC97, S294R)
Sequence (Q9HC97 whole entry S294R): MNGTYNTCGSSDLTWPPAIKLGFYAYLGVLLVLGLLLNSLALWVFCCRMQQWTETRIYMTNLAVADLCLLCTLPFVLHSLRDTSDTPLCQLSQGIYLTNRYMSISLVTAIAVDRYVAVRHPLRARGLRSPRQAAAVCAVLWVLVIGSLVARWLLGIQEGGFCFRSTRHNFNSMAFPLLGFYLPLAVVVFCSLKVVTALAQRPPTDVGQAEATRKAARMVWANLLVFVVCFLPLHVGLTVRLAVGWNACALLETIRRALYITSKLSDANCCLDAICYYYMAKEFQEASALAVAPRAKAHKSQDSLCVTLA
assayProtocol: Alternative Beta-Arrestin Assay (JumpIn 294R Tango U2OS cells, LiveBLAzer-FRET B/G)
measurementConditions: Human GPR35 expressing JumpIn 294R Tango U2OS cells, 5 hours treatment
Experimental: Human GPR35 expressing JumpIn (Thermo Fisher) 294R Tango U2OS cells were plated in 384-well format in clear bottom plates at a cell density of 10,000 cells/well and allowed to grow overnight. The next day, cells were treated with serially diluted test compounds for 5 hours. LiveBLAzer-FRET B/G (CCF4-AM) detection reagents were then added and cells were allowed to incubate for 2 hours before reading plates on a BioTek Cytation 5 plate reader. […]
parameterMeasured: EC50

> print(dat)
                                   compound   result
1  CCOc1cc(-c2cccc(C(=O)O)c2)ccc1-c1nc2[nH]nnc2c(=O)[nH]1 [Compound 110]  ≤ 10 µM
2  CCOC(=O)Cn1cc(-c2ccc(-c3nc4[nH]nnc4c(=O)[nH]3)c(OCC)c2)cn1 [Compound 126]  ≤ 10 µM
3  CCOc1cc(-c2ccc(OCCN(C)C)c(/C=C/C(=O)O)c2)ccc1-c1nc2[nH]nnc2c(=O)[nH]1 [Compound 319]  ≤ 10 µM

Q) Give the measured EC50 of CN(C)c1cc(-c2nc3[nH]nnc3c(=O)[nH]2)ccc1-c1ccc(C(=O)O)cc1 [Compound 288] .
A) ≤ 10 µM

Q) Try this compound too: CCOc1cc(N2CCC[C@H]2C(=O)O)ccc1-c1nc2[nH]nnc2c(=O)[nH]1 [Compound 162]
A) 10 to 50 µM

Q) Also CCOc1cc(N2CC[C@@H](C(=O)O)C2)ccc1-c1nc2[nH]nnc2c(=O)[nH]1 [Compound 167] , if possible.
A) ≤ 10 µM

Q) Ok, now CCOc1cc(-c2cccc([C@H]3C[C@H]3C(=O)O)c2)ccc1-c1nc2[nH]nnc2c(=O)[nH]1 (single isomer, unassigned) [Compound 308]
A) ≤ 10 µM

###

testedOn: Human GPR35 (Homo sapiens, UniProt Q9HC97, S294R)
assayProtocol: Alternative Beta-Arrestin Assay (JumpIn 294R Tango U2OS cells, LiveBLAzer-FRET B/G)
measurementConditions: Human GPR35 expressing JumpIn 294R Tango U2OS cells, 5 hours treatment
parameterMeasured: EC50

> print(dat)
                                   compound   result
1  CCOc1cc(C(=O)N[C@H](CCC(=O)O)C(=O)O)ccc1-c1nc2[nH]nnc2c(=O)[nH]1 [Compound 169]  ≤ 10 µM
2  CCOc1cc(C(=O)N2CC[C@@H](C(=O)O)C2)ccc1-c1nc2[nH]nnc2c(=O)[nH]1 [Compound 161]  ≤ 10 µM
3  CCOc1cc(-c2cccc(C(=O)OC)c2)ccc1-c1nc2[nH]nnc2c(=O)[nH]1 [Compound 107]  ≤ 10 µM

Q) Please give the measured EC50 for this compound: CCOc1cc(-c2cccc([C@H]3C[C@H]3C(=O)O)c2)ccc1-c1nc2[nH]nnc2c(=O)[nH]1 (single isomer, unassigned) [Compound 307]
A) ≤ 10 µM

###

testedOn: Human GPR35 (Homo sapiens, UniProt Q9HC97, S294R)
assayProtocol: Alternative Beta-Arrestin Assay (JumpIn 294R Tango U2OS cells, LiveBLAzer-FRET B/G)
measurementConditions: Human GPR35 expressing JumpIn 294R Tango U2OS cells, 5 hours treatment
parameterMeasured: EC50

The following compounds have reported results that may help.
> print(dat)
                                   compound   result
1  O=C(O)CNc1cccc(-c2ccc(-c3nc4[nH]nnc4c(=O)[nH]3)c(OC3CCCC3)c2)c1  ≤ 10 µM
2  CCOc1cc(-c2cc(C)cc(C(=O)O)c2)ccc1-c1nc2[nH]nnc2c(=O)[nH]1  ≤ 10 µM
3  CCOc1cc(C(=O)Nc2ccccc2)ccc1-c1nc2[nH]nnc2c(=O)[nH]1  ≤ 10 µM

Q) Requested read-out: EC50. Entry: CCOc1cc(-c2ccc(O)c(NCC(=O)O)c2)ccc1-c1nc2[nH]nnc2c(=O)[nH]1
A) ≤ 10 µM

Q) Can you check CCOc1cc(-c2cc(C)cc(O[C@H](C)C(=O)O)c2)ccc1-c1nc2[nH]nnc2c(=O)[nH]1 next?
A) ≤ 10 µM

Q) Another compound: CCOC(=O)COc1cccc(-c2ccc(-c3nc4[nH]nnc4c(=O)[nH]3)c(OC3CCCC3)c2)c1
A) ≤ 10 µM

Q) Next up: CCOc1cc(-c2ccc(C(=O)OCc3oc(=O)oc3C)cc2)ccc1-c1nc2nn[nH]c2c(=O)[nH]1
A) ≤ 10 µM

Q) Then what about the compound CCOC(=O)C(C)c1cccc(-c2ccc(-c3nc4[nH]nnc4c(=O)[nH]3)c(OCC)c2)c1 (stereo not drawn) ?
A) ≤ 10 µM

###

testedOn: Human GPR35 (Homo sapiens, UniProt Q9HC97)
Sequence (Q9HC97 whole entry): as the sequence (Q9HC97 whole entry S294R) above, with R294S counted along it
assayProtocol: Beta-Arrestin Assay (Tango U2OS cells, LiveBLAzer-FRET B/G)
measurementConditions: Human GPR35 expressing Tango U2OS cells, 5 hours treatment
pEC50: −log10 of the molar value.
Measured pEC50, listed per entry for reference.

> print(dat)
                                   compound  result
1  CCOc1cc(C2CC2)ccc1-c1nc2[nH]nnc2c(=O)[nH]1  ≥ 5.00
2  CCCOc1cc(-c2cccc(C(=O)O)c2)ccc1-c1nc2[nH]nnc2c(=O)[nH]1  ≥ 5.00
3  CCOc1cc(-c2cc(N)cc(C(=O)OC)c2)ccc1-c1nc2[nH]nnc2c(=O)[nH]1  ≥ 5.00
4  CCOc1cc(-c2ccc(F)c(C(=O)O)c2)ccc1-c1nc2[nH]nnc2c(=O)[nH]1  ≥ 5.00
5  CCOc1cc(-c2ccc(Cl)c(C(=O)O)c2)ccc1-c1nc2[nH]nnc2c(=O)[nH]1  ≥ 5.00

Q) Looking for the measured pEC50 of CCOc1cc(-c2cccnc2)ccc1-c1nc2[nH]nnc2c(=O)[nH]1 , can you help?
A) ≥ 5.00

Q) Please give the result for CCOc1cc(C(=O)N[C@H](CCC(=O)O)C(=O)O)ccc1-c1nc2[nH]nnc2c(=O)[nH]1 too.
A) ≥ 5.00

Q) Field entry: CCOc1cc(-c2ccccc2CC(=O)O)ccc1-c1nc2[nH]nnc2c(=O)[nH]1
A) ≥ 5.00

Q) Same lookup for CCOc1cc(-c2c[nH]c(C(=O)O)c2)ccc1-c1nc2[nH]nnc2c(=O)[nH]1 , please.
A) ≥ 5.00

###

Let's look at some compounds and their measured % inhibition at 50 μM.
testedOn: Human GPR35 (Homo sapiens, UniProt Q9HC97, S294R)
assayProtocol: Alternative Beta-Arrestin Assay (JumpIn 294R Tango U2OS cells, LiveBLAzer-FRET B/G)
Format: cell-based
measurementConditions: at 50 μM; Table 2
Your answer should be a plain number; it is taken to be in % inhibition at.

Worked set:
> print(dat)
                            substancesmiles      parametermeasured  result
1  CCOc1cc(C(=O)N2CCC[C@H]2C(=O)O)ccc1-c1nc2[nH]nnc2c(=O)[nH]1  % inhibition at 50 μM      48
2  CCOc1cc(C(=O)N(C)c2ccccc2)ccc1-c1nc2[nH]nnc2c(=O)[nH]1  % inhibition at 50 μM      35
3  CCOC(=O)C1(Cc2cccc(-c3ccc(-c4nc5[nH]nnc5c(=O)[nH]4)c(OCC)c3)c2)CCC1  % inhibition at 50 μM      12
4  CN(C)CCOc1cc(-c2ccc(C(=O)O)cc2)ccc1-c1nc2[nH]nnc2c(=O)[nH]1  % inhibition at 50 μM      16
5  CCOc1cc(N2CCCC2=O)ccc1-c1nc2[nH]nnc2c(=O)[nH]1  % inhibition at 50 μM      66
6  O=C(O)c1ccc(-c2ccc(-c3nc4[nH]nnc4c(=O)[nH]3)c(OCCN3CCCC3)c2)cc1  % inhibition at 50 μM      66

--- query ---
Q) Which % inhibition at 50 μM value is on record for CCOc1cc(-c2ccc(OCc3ccc(OC)cc3)c(NCC(=O)OC(C)(C)C)c2)ccc1-c1nc2[nH]nnc2c(=O)[nH]1 ?
A) 57

###

Quick list: EC50 per entry.
testedOn: Human GPR35 (Homo sapiens, UniProt Q9HC97, S294R)
assayProtocol: Alternative Beta-Arrestin Assay (JumpIn 294R Tango U2OS cells, LiveBLAzer-FRET B/G)
measurementConditions: Human GPR35 expressing JumpIn 294R Tango U2OS cells, 5 hours treatment

> print(dat)
                                   molecule   result
1  CCOc1cc(-c2cccnc2)ccc1-c1nc2[nH]nnc2c(=O)[nH]1  ≤ 10 µM

Q) I am curious: what EC50 value has been reported for CCOc1cc(-c2cc(O)cc(OC(C)C(=O)O)c2)ccc1-c1nc2[nH]nnc2c(=O)[nH]1 (stereo not shown) ?
A) ≤ 10 µM

Q) // query: CCOc1cc(Cc2ccc(C(=O)O)cc2)ccc1-c1nc2[nH]nnc2c(=O)[nH]1
A) ≤ 10 µM

Q) Request: CCOc1cc(-c2nc3[nH]nnc3c(=O)[nH]2)ccc1-c1ccc(C(=O)O)cc1
A) ≤ 10 µM
